Taken from ChEMBL document CHEMBL3112537.

target: Amine oxidase [flavin-containing] B (Homo sapiens, UniProt P27338); test: Inhibition of human recombinant MAO-B assessed as kynuramine oxidation to 4-hydroxyquinoline after 40 mins by LC-MS/MS analysis
Sequence (P27338 whole entry): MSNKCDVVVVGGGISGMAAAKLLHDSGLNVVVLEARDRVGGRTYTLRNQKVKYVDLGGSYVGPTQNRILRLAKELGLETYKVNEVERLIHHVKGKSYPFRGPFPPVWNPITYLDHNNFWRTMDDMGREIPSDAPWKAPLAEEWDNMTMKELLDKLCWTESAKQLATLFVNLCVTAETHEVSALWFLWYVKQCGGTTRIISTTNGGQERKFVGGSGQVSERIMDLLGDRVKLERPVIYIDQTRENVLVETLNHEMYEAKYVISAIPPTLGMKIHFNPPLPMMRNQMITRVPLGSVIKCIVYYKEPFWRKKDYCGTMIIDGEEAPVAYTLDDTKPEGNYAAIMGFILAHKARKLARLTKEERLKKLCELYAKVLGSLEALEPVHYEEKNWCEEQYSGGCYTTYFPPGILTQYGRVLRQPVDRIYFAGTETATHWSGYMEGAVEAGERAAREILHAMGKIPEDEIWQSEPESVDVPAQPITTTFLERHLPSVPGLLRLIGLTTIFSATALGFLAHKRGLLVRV
pIC50: −log10 of the molar value.
value-kind: pIC50

{"columns": ["smiles-record", "pIC50"],
 "data": [
  ["O=c1oc2ccc(O)cc2cc1CN1CCCC1", "< 4.00"]
]}

Task: What pIC50 value was documented for this compound, `O=c1oc2ccc(C(F)(F)F)cc2cc1CN1CCCC1` ?
Result: < 4.00

Task: Request: `O=c1oc2ccccc2cc1CN1CCCC1`
Result: < 4.00

Task: Also `O=c1oc2ccc([N+](=O)[O-])cc2cc1CN1CCCC1` ?
Result: < 4.00

Task: Request: `CCCOc1ccc2oc(=O)c(CN3CCCC3)cc2c1`
Result: 4.65

Task: // repeat for `CCCNCc1cc2ccccc2oc1=O` and report
Result: 4.21

Task: Could you do the same for `O=c1oc2ccc(OC(F)(F)F)cc2cc1CN1CCCC1` , please?
Result: < 4.00
